# Tested on: OVCAR-3 ovarian
# assay summary: NCI-60 one-dose screen, 48 h
# condition summary: 10 µM unless noted
# Experimental: Growth inhibition of the OVCAR-3 human tumor cell line is measured as a screen for anti-cancer activity. Cells are grown in 96 well plates and exposed to the test compound for 48 hours. Compounds are tested at a single concentration, which is 10^-5 M for most compounds. The reported endpoint is percent growth (GI% or GIPRCNT), where numbers from 0 - 100% represent growth inhibition, and numbers from -100% - 0 represent cell death. For example, a value of 40 represents 60% growth inhibition. […]
About 83,000 compounds went through this panel and 20% of them were active in at least one assay; those are over-represented in the sample as a whole. Calls of active or inactive are those of the source. Rule for the calls: active = growth percent below 10; inactive = the rest.
Possible outcomes: active, inactive

compound | class label
CC(=O)n1c(/C(C#N)=C/c2ccc(N(C)C)cc2)cc2ccccc21 | active
COc1cnc2c(c1)C(=O)c1c-2n(CCCNCCN2CCOCC2)c(=O)c2cc([N+](=O)[O-])ccc12 | active
CC(C)c1cc(C(=O)O)c(O)c(C(C)C)c1.CC(C)c1cc(C(=O)O)c(O)c(C(C)C)c1.[Mn] | inactive
Cc1csc(Nc2nc(-c3cccc(Br)c3)nc(C(Cl)(Cl)Cl)n2)n1 | inactive
Brc1ccc2[nH]cc(-c3nc(-c4c[nH]c5ncccc45)cs3)c2c1 | inactive
Cc1cc(Cl)nc(N(CCCNc2ccnc3cc(Cl)ccc23)Cc2ccco2)n1 | inactive
COC(=O)CNc1nc(N(C)O)nc(N(C)O)n1 | active
O=C1Nc2ccccc2/C1=C/c1cn(CCCn2c3ccccc3c(=O)c3ccccc32)c2ccccc12 | inactive
CCOc1ccc(NC(=O)c2ccccc2-c2ccccc2C(=O)O)cc1 | inactive
O=S(=O)(NCCNc1cc(-c2cn(-c3ccccc3)nc2-c2cccc(O)c2)ccn1)c1ccc(Cl)cc1 | inactive
O=C1c2ccccc2NC(c2cn(-c3ccccc3)nc2-c2cccs2)N1Cc1ccccc1 (stereo not drawn) | inactive
CN1CCN(c2ccc3nc(-c4[nH]ncc4Nc4ncnc5c4OCCCN5)[nH]c3c2)CC1 | active
CC(=O)N1N=C(c2ccc(C)cc2)CC1c1ccc(Oc2ccc(Br)cc2)cc1 (stereo not drawn) | inactive
C=C(C)[C@@H]1CC[C@]2(C(=O)O)CC[C@]3(C)[C@H](CC[C@@H]4[C@@]5(C)C/C(=C/c6cccc(I)c6)C(=O)C(C)(C)[C@@H]5CC[C@]43C)[C@@H]12 | active
Cn1cc(-c2csc(-c3cn(CCN)c4ccc(Br)cc34)n2)c2cccnc21 | inactive
COc1cc(OC)c2c(c1)c1nc3cc(C)c(C)cc3nc1n2CCN(C)C | inactive
Cn1cc(-c2nc(-c3c[nH]c4ncccc34)cs2)c2ccccc21 | inactive
COC(=O)[C@]12CC[C@@H](C)[C@H](C)[C@@H]1C1=CC[C@@H]3[C@@]4(C)C[C@@H](OC(C)=O)[C@H](OC(C)=O)[C@@](C)(COC(C)=O)[C@@H]4[C@H](O)C[C@@]3(C)[C@]1(C)CC2 | inactive
